Assay: Determination of hydrolytic stability (5:1 dioxane/buffer, HPLC)
Format: physicochemical
Conditions: 5:1 dioxane/buffer solution, pH = 5.0, 23° C., test ended after 24 or 192 hours, read-out: Hydrolytic stability t1/2
Description: The ester to be analyzed was dissolved in each case in a 5:1 mixture of dioxane and buffer solution (pH 1.2, pH 5.0 or pH 8.0) at 23° C. […]
parameter_measured: half-life

- compound: "CC(OC(=O)[C@@H](NC(=O)OC(C)(C)C)C(C)C)c1ccc([C@H]2C[C@@]3(C)C(CC[C@@]3(O)C(F)(F)C(F)(F)F)C3CCC4=CC(=O)CCC4=C32)cc1 (mixture of isomers)"
  half-life: "> 192 h"
- compound: "CC(=O)O[C@H](C)c1ccc([C@H]2C[C@@]3(C)C(CC[C@@]3(O)C(F)(F)C(F)(F)F)C3CCC4=CC(=O)CCC4=C32)cc1 (mixture of isomers)"
  half-life: "> 24 h"

For the next question, use this compound.
Q: What does the record list as half-life for CC(OC(=O)[C@H](C)NC(=O)OC(C)(C)C)c1ccc([C@H]2C[C@@]3(C)C(CC[C@@]3(O)C(F)(F)C(F)(F)F)C3CCC4=CC(=O)CCC4=C32)cc1 (mixture of isomers) ?
Ans: > 24 h

====

Recorded half-life, one value per entry.
experiment: Determination of hydrolytic stability in synthetic gastric juice (pH 1.2 buffer with pepsin); assay type: in vitro ADME; details: 37° C., pH 1.2 with added pepsin, test ended after 24 hours, read-out: Hydrolytic stability t1/2 in synthetic gastric juice (converted)

// worked examples, half-life included
- compound: "CC(C)C(=O)OC(C)c1ccc([C@H]2C[C@@]3(C)C(CC[C@@]3(O)C(F)(F)C(F)(F)F)C3CCC4=CC(=O)CCC4=C32)cc1 (mixture of isomers) [Example 2]"
  half-life: "> 24 h"
- compound: "CC(OC(=O)CC(C)(C)C)c1ccc([C@H]2C[C@@]3(C)C(CC[C@@]3(O)C(F)(F)C(F)(F)F)C3CCC4=CC(=O)CCC4=C32)cc1 (mixture of isomers) [Example 4]"
  half-life: "> 24 h"

For the next question, use this compound.
Q: What does the record list as half-life for CC(C)CC(=O)OC(C)c1ccc([C@H]2C[C@@]3(C)C(CC[C@@]3(O)C(F)(F)C(F)(F)F)C3CCC4=CC(=O)CCC4=C32)cc1 (mixture of isomers) [Example 3] ?
Ans: > 24 h

====

Biological target: human progesterone receptor A (Homo sapiens, UniProt P06401)
Sequence (P06401 1-769 isoform P06401-2): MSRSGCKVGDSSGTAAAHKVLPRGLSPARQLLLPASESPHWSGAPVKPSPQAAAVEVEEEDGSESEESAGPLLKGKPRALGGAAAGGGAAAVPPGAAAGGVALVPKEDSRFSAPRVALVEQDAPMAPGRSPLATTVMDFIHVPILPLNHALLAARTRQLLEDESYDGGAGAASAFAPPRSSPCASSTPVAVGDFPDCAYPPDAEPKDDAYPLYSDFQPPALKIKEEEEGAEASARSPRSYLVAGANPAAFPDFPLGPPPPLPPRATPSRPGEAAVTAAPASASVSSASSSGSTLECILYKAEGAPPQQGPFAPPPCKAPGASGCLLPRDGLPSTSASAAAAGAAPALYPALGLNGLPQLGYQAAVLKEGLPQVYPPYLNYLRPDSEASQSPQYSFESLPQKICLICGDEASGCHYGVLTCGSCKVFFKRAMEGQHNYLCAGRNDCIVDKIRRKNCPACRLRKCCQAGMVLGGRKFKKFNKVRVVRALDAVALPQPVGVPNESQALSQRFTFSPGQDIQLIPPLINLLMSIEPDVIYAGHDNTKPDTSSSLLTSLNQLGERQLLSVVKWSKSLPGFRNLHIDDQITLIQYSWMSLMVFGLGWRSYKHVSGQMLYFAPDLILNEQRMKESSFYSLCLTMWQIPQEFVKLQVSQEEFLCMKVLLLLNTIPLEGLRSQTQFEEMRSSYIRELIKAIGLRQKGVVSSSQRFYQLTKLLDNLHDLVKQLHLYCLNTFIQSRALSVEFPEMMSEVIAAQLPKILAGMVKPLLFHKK
Experiment: Progesterone receptor transactivation test in stably transfected SK-N-MC cells (PR-A, MMTV-LUC reporter)
Conditions: 0.1 nmol/l promegestone, 24 hours, read-out: PR-A IC50 (antagonistic potency)
pIC50: −log10 of the molar value.
parameter_measured: pIC50

- compound: "CC(OC(=O)[C@@H](C)NC(=O)OC(C)(C)C)c1ccc([C@H]2C[C@@]3(C)[C@@H](CC[C@@]3(O)C(F)(F)C(F)(F)F)[C@@H]3CCC4=CC(=O)CCC4=C32)cc1 (mixture of isomers)"
  pIC50: 10.00
- compound: "C=CCOC(=O)N[C@H](C(=O)OC(C)c1ccc([C@H]2C[C@@]3(C)C(CC[C@@]3(O)C(F)(F)C(F)(F)F)C3CCC4=CC(=O)CCC4=C32)cc1)C(C)C (mixture of isomers)"
  pIC50: 9.96
- compound: "CC(OC(=O)[C@@H]1CCCN1C(=O)OC(C)(C)C)c1ccc([C@H]2C[C@@]3(C)C(CC[C@@]3(O)C(F)(F)C(F)(F)F)C3CCC4=CC(=O)CCC4=C32)cc1 (mixture of isomers)"
  pIC50: 10.00
